- TARGET_UNDER_TEST: PDE10A (Homo sapiens, UniProt Q9Y233)
- Sequence (Q9Y233 1-779 isoform Q9Y233-1): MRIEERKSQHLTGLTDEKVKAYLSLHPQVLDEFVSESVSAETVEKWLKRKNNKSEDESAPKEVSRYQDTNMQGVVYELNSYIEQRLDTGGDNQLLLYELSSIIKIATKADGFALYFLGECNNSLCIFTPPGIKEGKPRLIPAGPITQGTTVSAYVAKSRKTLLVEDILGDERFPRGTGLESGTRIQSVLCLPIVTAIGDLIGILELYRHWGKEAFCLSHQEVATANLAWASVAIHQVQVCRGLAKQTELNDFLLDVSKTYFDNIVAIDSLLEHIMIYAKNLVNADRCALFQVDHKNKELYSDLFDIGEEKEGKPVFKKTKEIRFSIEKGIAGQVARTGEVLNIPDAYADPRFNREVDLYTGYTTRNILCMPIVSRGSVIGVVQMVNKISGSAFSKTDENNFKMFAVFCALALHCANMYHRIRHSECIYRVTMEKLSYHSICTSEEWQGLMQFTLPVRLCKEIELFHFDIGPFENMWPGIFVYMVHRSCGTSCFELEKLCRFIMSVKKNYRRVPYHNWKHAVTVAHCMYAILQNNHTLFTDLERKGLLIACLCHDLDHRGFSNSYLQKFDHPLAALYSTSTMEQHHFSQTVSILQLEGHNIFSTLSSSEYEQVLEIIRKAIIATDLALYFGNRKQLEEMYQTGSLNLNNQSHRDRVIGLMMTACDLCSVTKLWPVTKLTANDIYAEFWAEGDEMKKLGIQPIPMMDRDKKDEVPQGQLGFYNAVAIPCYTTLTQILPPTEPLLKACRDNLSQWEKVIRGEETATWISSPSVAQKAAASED
pIC50: −log10 of the molar value.
MEASURED_PROPERTY: pIC50

**Query** Specify measured pIC50 for Cc1ccncc1Nc1nc(CC2CCCCC2)[nH]c(=O)c1C#N [Example 3] .
**Result** < 5.40

----------
- TARGET_UNDER_TEST: PDE3B (Homo sapiens, UniProt Q13370)
- Sequence (Q13370 whole entry): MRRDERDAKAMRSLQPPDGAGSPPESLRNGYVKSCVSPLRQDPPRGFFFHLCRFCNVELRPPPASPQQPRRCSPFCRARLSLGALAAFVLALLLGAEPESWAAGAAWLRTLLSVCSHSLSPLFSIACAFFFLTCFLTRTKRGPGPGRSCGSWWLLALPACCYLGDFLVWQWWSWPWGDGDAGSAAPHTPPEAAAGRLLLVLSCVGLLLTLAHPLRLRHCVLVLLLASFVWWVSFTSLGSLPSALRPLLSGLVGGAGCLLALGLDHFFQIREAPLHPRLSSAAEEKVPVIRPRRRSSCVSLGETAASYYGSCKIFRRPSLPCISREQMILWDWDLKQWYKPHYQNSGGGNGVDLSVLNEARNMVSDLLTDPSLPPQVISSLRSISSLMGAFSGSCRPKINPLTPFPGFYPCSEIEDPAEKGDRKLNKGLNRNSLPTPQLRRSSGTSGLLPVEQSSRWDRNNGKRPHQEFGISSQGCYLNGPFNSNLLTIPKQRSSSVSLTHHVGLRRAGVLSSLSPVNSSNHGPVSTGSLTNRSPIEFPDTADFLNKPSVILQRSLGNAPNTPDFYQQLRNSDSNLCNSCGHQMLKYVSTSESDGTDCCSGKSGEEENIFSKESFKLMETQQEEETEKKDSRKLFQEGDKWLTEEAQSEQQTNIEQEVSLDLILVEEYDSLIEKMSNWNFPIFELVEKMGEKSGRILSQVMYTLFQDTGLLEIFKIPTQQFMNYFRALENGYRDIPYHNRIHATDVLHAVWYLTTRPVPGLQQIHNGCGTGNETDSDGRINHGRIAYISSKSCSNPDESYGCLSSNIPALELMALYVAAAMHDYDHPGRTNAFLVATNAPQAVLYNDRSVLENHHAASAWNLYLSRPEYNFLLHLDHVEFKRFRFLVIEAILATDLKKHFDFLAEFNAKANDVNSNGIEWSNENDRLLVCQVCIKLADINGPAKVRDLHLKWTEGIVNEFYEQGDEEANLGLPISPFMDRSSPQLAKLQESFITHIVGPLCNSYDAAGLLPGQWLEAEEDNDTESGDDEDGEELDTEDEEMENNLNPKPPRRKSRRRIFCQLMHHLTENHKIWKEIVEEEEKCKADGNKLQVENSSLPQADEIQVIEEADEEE
pIC50: −log10 of the molar value.
MEASURED_PROPERTY: pIC50

**Query** Find the measured pIC50 of Cc1ccncc1Nc1nc(CC2CCCCC2)[nH]c(=O)c1C#N with PDE3B (Homo sapiens, UniProt Q13370) as test system.
**Result** < 5.40

----------
- TARGET_UNDER_TEST: PDE7A (Homo sapiens)
- Sequence (Q9NP56 whole entry): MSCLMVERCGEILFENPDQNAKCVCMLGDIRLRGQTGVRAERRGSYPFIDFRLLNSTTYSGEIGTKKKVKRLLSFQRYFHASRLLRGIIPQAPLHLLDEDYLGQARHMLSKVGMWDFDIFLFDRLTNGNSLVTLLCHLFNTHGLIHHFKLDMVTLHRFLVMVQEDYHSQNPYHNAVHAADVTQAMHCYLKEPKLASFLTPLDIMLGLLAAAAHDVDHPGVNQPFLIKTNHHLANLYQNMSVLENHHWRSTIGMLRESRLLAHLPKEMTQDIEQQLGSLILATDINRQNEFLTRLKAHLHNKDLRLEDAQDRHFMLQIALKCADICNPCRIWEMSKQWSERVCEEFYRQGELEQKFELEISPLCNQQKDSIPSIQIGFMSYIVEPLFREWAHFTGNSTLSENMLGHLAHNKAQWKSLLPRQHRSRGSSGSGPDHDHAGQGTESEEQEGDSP
MEASURED_PROPERTY: IC50

**Query** Find the measured IC50 of Cc1ccncc1Nc1nc(CC2CCCCC2)[nH]c(=O)c1C#N with PDE7A (Homo sapiens) as test system.
**Result** > 4 µM

----------
- TARGET_UNDER_TEST: PDE9A (Homo sapiens)
- Sequence (O76083 whole entry): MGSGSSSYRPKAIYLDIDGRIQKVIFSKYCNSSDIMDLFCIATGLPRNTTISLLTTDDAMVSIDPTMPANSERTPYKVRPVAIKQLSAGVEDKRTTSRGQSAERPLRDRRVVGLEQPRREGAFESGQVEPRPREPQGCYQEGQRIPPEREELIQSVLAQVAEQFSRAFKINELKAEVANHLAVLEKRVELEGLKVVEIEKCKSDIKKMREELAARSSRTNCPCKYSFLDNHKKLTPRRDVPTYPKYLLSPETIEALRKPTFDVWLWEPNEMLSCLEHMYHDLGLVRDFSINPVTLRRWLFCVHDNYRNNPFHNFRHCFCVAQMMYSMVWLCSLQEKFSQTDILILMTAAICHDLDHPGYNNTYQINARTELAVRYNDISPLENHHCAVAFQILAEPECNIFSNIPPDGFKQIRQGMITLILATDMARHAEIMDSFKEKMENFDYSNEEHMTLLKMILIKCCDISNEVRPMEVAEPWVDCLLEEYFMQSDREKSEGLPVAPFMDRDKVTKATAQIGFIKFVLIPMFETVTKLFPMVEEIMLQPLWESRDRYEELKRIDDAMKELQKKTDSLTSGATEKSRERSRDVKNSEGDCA
- EXPERIMENT_DESCRIPTION: PDE9A inhibition (scintillation proximity assay)
- ASSAY_CONDITIONS: recombinant PDE9A, Table 2; read-out: PDE9A-inhibiting effect IC50
MEASURED_PROPERTY: pIC50
Please note pIC50 is a logarithmic value: minus log10 of concentration in mol/L. Answer with that number alone.

As a guide, the following entries are already answered.
CCC(C)Cc1nc(Nc2ccccc2C)c(C#N)c(=O)[nH]1 (stereo not shown) :: 7.12
Cc1ccc(F)cc1Nc1nc(CC2CCCC2)[nH]c(=O)c1C#N :: 7.06
N#Cc1c(Nc2ccc(F)cc2)nc(CC2CCCC2)[nH]c1=O :: 7.12

API: the following record is the query input.
**Query** Find the measured pIC50 of Cc1c(F)cccc1Nc1nc(CC2CCCC2)[nH]c(=O)c1C#N with PDE9A (Homo sapiens) as test system.
**Result** 7.27
